Just for reference, ChEMBL document CHEMBL5360612 is where these values come from.

SYSTEM NAME: Cytochrome P450 2D6 (Homo sapiens, UniProt P10635)
Sequence (P10635 whole entry): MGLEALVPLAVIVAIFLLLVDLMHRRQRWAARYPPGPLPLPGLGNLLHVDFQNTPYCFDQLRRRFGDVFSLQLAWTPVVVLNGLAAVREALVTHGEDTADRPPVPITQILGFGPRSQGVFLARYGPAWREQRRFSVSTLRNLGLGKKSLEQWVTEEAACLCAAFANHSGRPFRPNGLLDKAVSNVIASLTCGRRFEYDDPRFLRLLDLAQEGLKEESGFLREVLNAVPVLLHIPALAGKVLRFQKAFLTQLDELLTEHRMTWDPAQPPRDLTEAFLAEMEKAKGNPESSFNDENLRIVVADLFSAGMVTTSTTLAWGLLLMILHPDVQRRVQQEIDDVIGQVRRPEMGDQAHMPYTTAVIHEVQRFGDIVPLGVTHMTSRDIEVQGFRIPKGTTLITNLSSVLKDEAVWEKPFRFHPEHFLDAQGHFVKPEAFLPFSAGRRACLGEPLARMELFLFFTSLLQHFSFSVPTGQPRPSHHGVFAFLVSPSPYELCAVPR
TEST DESCRIPTION: Inhibition of recombinant human CYP2D6 by fluorescence microplate reader assay
pIC50: −log10 of the molar value.
MEASUREMENT NAME: pIC50

{"columns": ["ENTRY SMILES", "SYSTEM NAME", "MEASUREMENT QUALIFIER", "RESULT"],
 "data": [
  ["Cn1nc2cc1CCc1cc(c3ccc(F)cc3c1)OCCCc1c(C(=O)O)n(CCN3CCOCC3)c3c(c(Cl)ccc13)-c1c(cnn1C)CSC2", "Cytochrome P450 2D6 (Homo sapiens, UniProt P10635)", "=", 4.98],
  ["COCCOCc1nn(C)c2c1CSCc1cc(n(C)n1)CCc1cc(c3ccc(F)cc3c1)OCCCc1c(C(=O)O)n(C)c3c-2c(Cl)ccc13", "Cytochrome P450 2D6 (Homo sapiens, UniProt P10635)", "<", 4.70]
]}
